Tested on: ACHN renal
Measurement protocol: NCI-60 one-dose screen, 48 h (100 = growth as untreated, 0 = no growth, -100 = all killed)
Reported conditions: 10 µM unless noted
The panel holds about 83,000 compounds, 20% with a hit somewhere; the sample as a whole holds those more often.
// boundary case: growth equal to 80% maps to N; strictly smaller maps to Y

Example cases with answers are listed next.
Cc1cc(Br)c(N)c(Br)c1: N
Nc1nc(-c2cnccn2)nn1-c1nc2ccccc2s1: N
Nc1no[n+]([O-])c1-c1nnc2c(n1)-c1ccccc1C2=O: Y
CCn1c(SCC(=O)Nc2cc(C(F)(F)F)ccc2Cl)nc2ccccc2c1=O: Y

Does the reported growth of the following molecule sit strictly below 80%? `NC1(N2SC(S)=C3CCCC=C32)CCCCC1`
N
